Where these numbers come from: PubChem BioAssay AID1159580

Experiment: chemical genetic growth profiling, strain panel (AID 1159580);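 further: tested at 20 µM; growth read once vehicle control cultures reached saturation at 30 °C; lower values mean less growth of the strain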
Conditions: S. cerevisiae deletion strains, growth OD, locus YLR058C, strain SHM2 (second series)
In all, about 5,500 compounds went through this assay and about 2,000 (36%) were called active. Inconclusive results (about 18%) are left out. No stated cut-off is given here; in the data, active means normalized growth mostly below about 0.91 (no sharp cut-off); inconclusive means no clear call, values can overlap the other calls; inactive means mostly above about 0.92. Some of the results follow.
Classes to choose from: active, inactive

Reference set, count: 4
{"compound": "Cc1c(-c2csc(-c3ccc(Cl)cc3)n2)sc2ccc(Cl)cc12", "group": "inactive"}
{"compound": "COc1c([N+](=O)[O-])cc(C(F)(F)F)cc1[N+](=O)[O-]", "group": "inactive"}
{"compound": "COC(=O)C(Cc1c[nH]c2ccccc12)NC(=O)c1c(Cl)cccc1Cl (stereo not given)", "group": "inactive"}
{"compound": "O=[N+]([O-])c1cc(C(F)(F)F)cc([N+](=O)[O-])c1Oc1ccc(Cl)c(Cl)c1", "group": "active"}

We next turn to a different compound, shown below.
What outcome does the record of this test show for COc1ccc(Oc2ccc(C(F)(F)F)cc2[N+](=O)[O-])cc1 ? inactive
